System: ATP;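 further: ATP exposure 15 min at 22 °C before imaging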
Test: switch fluorescence ratio, 500 uM ATP over buffer (Cy3 cluster intensity, sum of 5 cycles each) (fold (ratio)); higher = stronger signal-on switching upon ATP binding; sequences stand for … in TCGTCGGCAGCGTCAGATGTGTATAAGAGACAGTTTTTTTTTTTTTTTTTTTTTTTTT…TC
Conditions: aptamer strand: ATP DNA aptamer (quencher-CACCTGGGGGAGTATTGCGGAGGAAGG + anchor), 100 nM annealed; ATP concentration: 500 uM
MEASURED METRIC: switch fluorescence ratio
I only need the number, thanks.

Consider the reported switch fluorescence ratio for these sequences:
Q: Please respond with reported switch fluorescence ratio (system ATP) for `GGTGATCTTT` .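 Further: ATP exposure 15 min at 22 °C before imaging.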
Result: 0.965

Q: Please respond with reported switch fluorescence ratio (system ATP) for `TGGGAAATCA` .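 Further: ATP exposure 15 min at 22 °C before imaging.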
Result: 0.993

Q: Please respond with reported switch fluorescence ratio (system ATP) for `AGCCGGGGGC` .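 Further: ATP exposure 15 min at 22 °C before imaging.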
Result: 1

---
Q: Please respond with reported switch fluorescence ratio (system ATP) for `TTAATTGGGA` .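 Further: ATP exposure 15 min at 22 °C before imaging.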
Result: 0.99

Q: Please respond with reported switch fluorescence ratio (system ATP) for `TTGCTGGCGG` .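 Further: ATP exposure 15 min at 22 °C before imaging.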
Result: 1

Q: Please respond with reported switch fluorescence ratio (system ATP) for `ACACGGGATG` .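 Further: ATP exposure 15 min at 22 °C before imaging.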
Result: 1.06

Q: Please respond with reported switch fluorescence ratio (system ATP) for `CTGGCGACAC` .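 Further: ATP exposure 15 min at 22 °C before imaging.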
Result: 1.39

Q: Please respond with reported switch fluorescence ratio (system ATP) for `CGTGACAGGG` .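 Further: ATP exposure 15 min at 22 °C before imaging.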
Result: 1.04

Q: Please respond with reported switch fluorescence ratio (system ATP) for `CCTGCAGTTT` .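 Further: ATP exposure 15 min at 22 °C before imaging.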
Result: 1.04

Q: Please respond with reported switch fluorescence ratio (system ATP) for `CTGTTTCGGG` .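 Further: ATP exposure 15 min at 22 °C before imaging.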
Result: 0.978

Q: Please respond with reported switch fluorescence ratio (system ATP) for `GATATAAAGA` .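 Further: ATP exposure 15 min at 22 °C before imaging.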
Result: 0.994

Q: Please respond with reported switch fluorescence ratio (system ATP) for `TTTTGATGGG` .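 Further: ATP exposure 15 min at 22 °C before imaging.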
Result: 0.981

Q: Please respond with reported switch fluorescence ratio (system ATP) for `CGGGACTCTT` .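 Further: ATP exposure 15 min at 22 °C before imaging.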
Result: 0.995

Q: Please respond with reported switch fluorescence ratio (system ATP) for `CAGCTAACTT` .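 Further: ATP exposure 15 min at 22 °C before imaging.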
Result: 1.04

Q: Please respond with reported switch fluorescence ratio (system ATP) for `AGTGTTCGTC` .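 Further: ATP exposure 15 min at 22 °C before imaging.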
Result: 1.05

Q: Please respond with reported switch fluorescence ratio (system ATP) for `GGAAATTGAG` .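 Further: ATP exposure 15 min at 22 °C before imaging.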
Result: 0.999

Q: Please respond with reported switch fluorescence ratio (system ATP) for `GGCCCAGAAA` .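 Further: ATP exposure 15 min at 22 °C before imaging.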
Result: 1

Q: Please respond with reported switch fluorescence ratio (system ATP) for `TTGTGGGGGG` .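 Further: ATP exposure 15 min at 22 °C before imaging.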
Result: 0.989

Q: Please respond with reported switch fluorescence ratio (system ATP) for `GTGGCAGGAA` .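 Further: ATP exposure 15 min at 22 °C before imaging.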
Result: 0.964

Q: Please respond with reported switch fluorescence ratio (system ATP) for `GATTACGGGG` .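 Further: ATP exposure 15 min at 22 °C before imaging.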
Result: 1.01

---

System: ATP;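 further: ATP exposure 15 min at 22 °C before imaging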
Experiment: switch fluorescence ratio, 500 uM ATP over buffer (Cy3 cluster intensity, sum of 5 cycles each) (fold (ratio)); higher = stronger signal-on switching upon ATP binding; sequences stand for … in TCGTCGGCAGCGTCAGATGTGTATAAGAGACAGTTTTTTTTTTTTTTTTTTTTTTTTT…TC
Conditions: aptamer strand: ATP DNA aptamer (quencher-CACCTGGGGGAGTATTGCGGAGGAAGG + anchor), 100 nM annealed; ATP concentration: 500 uM
# switch fluorescence ratio listing for each entry below
I only need the number, thanks.

Q: Read off the recorded switch fluorescence ratio for `GGGGGCGGAC`
Result: 0.974

Q: Read off the recorded switch fluorescence ratio for `TGGGTCCGTT`
Result: 1.01

Q: Read off the recorded switch fluorescence ratio for `CGTTACGCGC`
Result: 1

Q: Read off the recorded switch fluorescence ratio for `GAGGATCGGG`
Result: 0.992

Q: Read off the recorded switch fluorescence ratio for `GGGTTGAAAA`
Result: 0.999

Q: Read off the recorded switch fluorescence ratio for `TCCATTTTCG`
Result: 0.984

---
Q: Read off the recorded switch fluorescence ratio for `GCCGGGGTTG`
Result: 1

Q: Read off the recorded switch fluorescence ratio for `CGTCAGTATG`
Result: 1

Q: Read off the recorded switch fluorescence ratio for `TAGATCAATG`
Result: 1.02

Q: Read off the recorded switch fluorescence ratio for `TTTATGAGCC`
Result: 1.01

Q: Read off the recorded switch fluorescence ratio for `GGGGGTAAAA`
Result: 1.01

Q: Read off the recorded switch fluorescence ratio for `TTGTTGGTGA`
Result: 0.971

Q: Read off the recorded switch fluorescence ratio for `TTTTAGGGGT`
Result: 1.02

Q: Read off the recorded switch fluorescence ratio for `GCCTACAGGT`
Result: 1.03

Q: Read off the recorded switch fluorescence ratio for `ATGGGGACTA`
Result: 1.01

Q: Read off the recorded switch fluorescence ratio for `GCAGGAGGGG`
Result: 0.965

---

Tested on: ATP;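 further: ATP exposure 15 min at 22 °C before imaging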
Experiment: switch fluorescence ratio, 500 uM ATP over buffer (Cy3 cluster intensity, sum of 5 cycles each) (fold (ratio)); higher = stronger signal-on switching upon ATP binding; sequences stand for … in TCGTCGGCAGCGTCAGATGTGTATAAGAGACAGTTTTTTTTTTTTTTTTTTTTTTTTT…TC
Details: aptamer strand: ATP DNA aptamer (quencher-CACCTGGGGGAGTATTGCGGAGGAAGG + anchor), 100 nM annealed; ATP concentration: 500 uM
# switch fluorescence ratio listing for each entry below
I only need the number, thanks.

Q: Read off the recorded switch fluorescence ratio for `CATAATAC`
Result: 1.82

Q: Read off the recorded switch fluorescence ratio for `TATTTTCGTA`
Result: 1

Q: Read off the recorded switch fluorescence ratio for `GTCGGGGTTG`
Result: 0.971

Q: Read off the recorded switch fluorescence ratio for `CCTGAAGACA`
Result: 1

Q: Read off the recorded switch fluorescence ratio for `GTTGTTAACT`
Result: 0.999

---
Q: Read off the recorded switch fluorescence ratio for `ATGTTTGAGT`
Result: 1.01

Q: Read off the recorded switch fluorescence ratio for `TCGCAGGGTG`
Result: 1.43

Q: Read off the recorded switch fluorescence ratio for `CCCGGGGCTA`
Result: 1.08

Q: Read off the recorded switch fluorescence ratio for `TACGGAACGG`
Result: 1.07

Q: Read off the recorded switch fluorescence ratio for `CCGTATAGCT`
Result: 1.24

Q: Read off the recorded switch fluorescence ratio for `GGGGGTAATA`
Result: 0.999

Q: Read off the recorded switch fluorescence ratio for `CTTGGTTACG`
Result: 0.974

Q: Read off the recorded switch fluorescence ratio for `AAGGGCATTT`
Result: 1.04

Q: Read off the recorded switch fluorescence ratio for `ATCGTTTTTT`
Result: 0.973

Q: Read off the recorded switch fluorescence ratio for `AATACCAAAT`
Result: 0.999

Q: Read off the recorded switch fluorescence ratio for `TTTCGGAAAA`
Result: 1.24

Q: Read off the recorded switch fluorescence ratio for `ACTTCTGGCT`
Result: 0.972

Q: Read off the recorded switch fluorescence ratio for `AGTGTCAGAA`
Result: 0.99

Q: Read off the recorded switch fluorescence ratio for `ATGTAGGCGT`
Result: 0.967

Q: Read off the recorded switch fluorescence ratio for `AAAGCTTTTC`
Result: 1.07

---

Tested on: ATP;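 further: ATP exposure 15 min at 22 °C before imaging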
Test: switch fluorescence ratio, 500 uM ATP over buffer (Cy3 cluster intensity, sum of 5 cycles each) (fold (ratio)); higher = stronger signal-on switching upon ATP binding; sequences stand for … in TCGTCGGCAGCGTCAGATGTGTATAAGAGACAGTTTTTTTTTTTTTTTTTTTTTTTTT…TC
Details: aptamer strand: ATP DNA aptamer (quencher-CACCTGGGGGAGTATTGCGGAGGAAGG + anchor), 100 nM annealed; ATP concentration: 500 uM
MEASURED METRIC: switch fluorescence ratio
I only need the number, thanks.

Q: Read off the recorded switch fluorescence ratio for `ACTTGTGGTC`
Result: 0.995

Q: Read off the recorded switch fluorescence ratio for `ATGGGTTTAA`
Result: 0.961

Q: Read off the recorded switch fluorescence ratio for `TATTTGTAAT`
Result: 1.03

Q: Read off the recorded switch fluorescence ratio for `GGTTTCCATT`
Result: 1

---
Q: Read off the recorded switch fluorescence ratio for `CCCCGGATTT`
Result: 1.09

Q: Read off the recorded switch fluorescence ratio for `GATCTCAGTT`
Result: 1.02

Q: Read off the recorded switch fluorescence ratio for `CGTTTAGGAC`
Result: 1.1

Q: Read off the recorded switch fluorescence ratio for `TGTGGATTAT`
Result: 0.988

Q: Read off the recorded switch fluorescence ratio for `AGACTGGGGC`
Result: 1.03

Q: Read off the recorded switch fluorescence ratio for `CCGTTATAGT`
Result: 1.8

Q: Read off the recorded switch fluorescence ratio for `ATAAACGGCT`
Result: 1.01

Q: Read off the recorded switch fluorescence ratio for `ACCGGTTGCC`
Result: 0.974

Q: Read off the recorded switch fluorescence ratio for `CATGGCTTAT`
Result: 1.01

---

System: ATP;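 further: ATP exposure 15 min at 22 °C before imaging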
Test: switch fluorescence ratio, 500 uM ATP over buffer (Cy3 cluster intensity, sum of 5 cycles each) (fold (ratio)); higher = stronger signal-on switching upon ATP binding; sequences stand for … in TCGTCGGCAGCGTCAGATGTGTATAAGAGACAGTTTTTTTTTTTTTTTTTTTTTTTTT…TC
Settings: aptamer strand: ATP DNA aptamer (quencher-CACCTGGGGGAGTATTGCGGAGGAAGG + anchor), 100 nM annealed; ATP concentration: 500 uM
# switch fluorescence ratio listing for each entry below
I only need the number, thanks.

Q: Read off the recorded switch fluorescence ratio for `TCTGGGGGGC`
Result: 0.996

Q: Read off the recorded switch fluorescence ratio for `TTGGTGAATT`
Result: 0.99

Q: Read off the recorded switch fluorescence ratio for `TACGATGTGC`
Result: 1.01

Q: Read off the recorded switch fluorescence ratio for `GATTAATGTT`
Result: 1
